Tested on: SR
test_details: NCI tumour cell line growth inhibition, 48 h
Counter-ions that a name gives are not always drawn. Calls of active or inactive are those of the source. Rule as the data show it: active = GI50 up to about 1.1 µM and inactive = higher.
property_measured: GI50

In [3]: df
Out[3]:
                                    molecule  property_measured  observed_measurement
 0  COc1cc2c3c(c1OC)C1(C=CC(=O)C=C1)C[C@H]3N(C)CC2               GI50   > 100 µM (inactive)
 1                    N=C(N)SCCc1cn2ccccc2n1               GI50   > 100 µM (inactive)
 2  COc1cc(C2SCC(=O)N2c2cccc(Cl)c2)cc(OC)c1OC (centres undefined)               GI50    28.4 µM (inactive)
 3  CN(C)CCOc1ccc(/C(=C(/CCCl)c2ccccc2)c2ccccc2)cc1 [TOREMIFENE CITRATE]               GI50    3.23 µM (inactive)
 4  O=C(O)c1cccc(OCCOc2cccc(C(=O)O)c2[N+](=O)[O-])c1[N+](=O)[O-]               GI50   > 100 µM (inactive)
 5  Cc1coc2c1C(OC(=O)C(C)C)C1(C)C(C)CCC(O)C1C2=O (centres undefined)               GI50    51.2 µM (inactive)
 6  COC(=O)c1c(OC(C)=O)ccc2c1c1cc3ccccc3c(OC(C)=O)c1n2C               GI50    3.69 µM (inactive)
 7          Cc1nnc(N)nc1/C=C\c1ccc(N(C)C)cc1               GI50    6.24 µM (inactive)
 8  Nc1cn(C2OC(CC(c3ccccc3)(c3ccccc3)c3ccccc3)C(O)C2O)c(=O)[nH]c1=O (centres undefined)               GI50    18.7 µM (inactive)
 9                 O=S1(=O)OCCOS(=O)(=O)C1Br               GI50   > 100 µM (inactive)
10  C[C@@H]1C(O)CC[C@H](C)C12CC=CC2=O (some centres undefined)               GI50   > 100 µM (inactive)
11  C[N+]1(C)C(c2ccccc2)C(=O)O[B@-]1(F)c1ccccc1 (some centres undefined)               GI50   > 100 µM (inactive)
12    COc1ccc(CCNC2=CC(=O)c3ncccc3C2=O)cc1OC               GI50    4.24 µM (inactive)
13  COc1ccc(/N=N/c2c(C)c(C#N)c(=S)n(C3OC(COC(C)=O)C(OC(C)=O)C(OC(C)=O)C3OC(C)=O)c2-c2ccccc2)cc1 (centres undefined)               GI50    4.07 µM (inactive)

---

System: MDA-MB-435
test_details: NCI tumour cell line growth inhibition, 48 h
Calls of active or inactive are those of the source. No stated cut-off is given here; in the data, active = GI50 up to about 1.1 µM and inactive = higher.
Classes used: Yes = active, No = inactive

>>> print(df.to_string())
                                    compound  class
 0  COc1cc(O)c2c(=O)c(O)c(-c3ccc(O)c(O)c3)oc2c1     No
 1  C1CCN2CC34CC(CC5CCCN(C6CCCC3N6)C54)C2C1 (stereo not drawn)     No
 2  Cc1cn(C2CC(O)C(Cn3cc(Cn4ncc(=O)[nH]c4=O)nn3)O2)c(=O)[nH]c1=O (stereo not drawn)     No
 3  COc1ccc(CC2NC(=O)/C=C/CC(C(C)C3OC3c3ccccc3)OC(=O)C(CC(C)C)OC(=O)C(C)CNC2=O)cc1Cl (stereo not drawn)    Yes
 4  Nc1ncnn2c(C3OC(CO)C(O)C3O)ccc12 (stereo not drawn)    Yes
 5                  CCCc1cc(COC)c(C#N)c(O)n1     No
 6                 CC/C(N)=N\NC(=O)OC(C)(C)C     No
 7                    CC#Cc1ccc(-c2ccccc2)s1     No
 8  CCC/C=C/C=C/C(=O)OC1C(C)C2(O)C3C=C(C)C(=O)C3CC(COC(C)=O)=CC2C2C(C)(C)C12OC(=O)C(C)C (stereo not drawn)    Yes
 9         N#Cc1c(N2CCCC2)ncn(-c2ccccc2)c1=O     No
10  CC(=O)Nc1ccc2c3c(cc(O)c2c1)N(C(=O)CCCCCC(=O)Nc1ccc2c4c(cc(O)c2c1)N(C(=O)OC(C)(C)C)CC4CCl)CC3CCl (stereo not drawn)     No
11  Cc1cn(C2CC(O)C(Cn3nncc3Cn3nc(Br)c(=O)[nH]c3=O)O2)c(=O)[nH]c1=O (stereo not drawn)     No
12  Cc1cc(=O)oc2cc3oc(N(C)c4ccccc4)nc(=O)c3cc12     No
13  COc1ccc(CNc2nc(NCc3ccc(OC)cc3)nc(Nc3ccccc3)n2)cc1     No
14  CCOC(=O)C1=C(C(=O)c2ccc(C)cc2)C(c2cccc([N+](=O)[O-])c2)C(C(=O)c2ccc(C)cc2)=C(C(=O)OCC)N1     No
15  FC(F)(F)c1ccccc1N1CCN(c2nc(-c3cccs3)nc3ccc(Br)cc23)CC1     No
16  CCC1([N+](=O)[O-])CC2C=CC1C2 (stereo not drawn)     No
17  C=CCC1(Sc2ccccn2)Sc2ccc3ccccc3c2-c2c(ccc3ccccc23)S1     No
